Reference source: patent US20080181886A1

Molecular target: human BAFF (human, UniProt Q9Y275 82-285, limits assumed)
Sequence (Q9Y275 82-285 limits assumed): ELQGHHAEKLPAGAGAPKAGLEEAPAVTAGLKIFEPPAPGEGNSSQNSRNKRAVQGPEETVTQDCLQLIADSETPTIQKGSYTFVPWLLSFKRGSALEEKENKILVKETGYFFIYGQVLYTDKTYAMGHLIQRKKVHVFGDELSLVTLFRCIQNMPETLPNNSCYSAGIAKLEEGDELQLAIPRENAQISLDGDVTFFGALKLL
Assay: NNS library, phage display;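 note: ligand versus display occurrence-to-degeneracy ratio and higher means enriched by binding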

{"Binder": "SLSCRKEQGKFYDHLLRDCISCASSCGQHPKQCAYFCENKLR (receptor, phage library variant, format as m9) [TACI_d2 I92S]", "F' BAFF": 0}
{"Binder": "SLSCRKEQGKFYDHLLRDCISCASFCGQHPKQCAYFCENKLR (receptor, phage library variant, format as m9) [TACI_d2 I92F]", "F' BAFF": 0}
{"Binder": "SLSCRKEQGKFYDHLLRDCISCASKCGQHPKQCAYFCENKLR (receptor, phage library variant, format as m9) [TACI_d2 I92K]", "F' BAFF": 0}
{"Binder": "SLSCRKEQGKFYDHLLMDCISCASICGQHPKQCAYFCENKLR (receptor, phage library variant, format as m9) [TACI_d2 R84M]", "F' BAFF": 7}
{"Binder": "SLSCRKEQGKAYDHLLRDCISCASICGQHPKQCAYFCENKLR (receptor, phage library variant, format as m9) [TACI_d2 F78A]", "F' BAFF": 0}
{"Binder": "SLSCRKEQGKKYDHLLRDCISCASICGQHPKQCAYFCENKLR (receptor, phage library variant, format as m9) [TACI_d2 F78K]", "F' BAFF": 0}
{"Binder": "SLSCRKEQGKVYDHLLRDCISCASICGQHPKQCAYFCENKLR (receptor, phage library variant, format as m9) [TACI_d2 F78V]", "F' BAFF": 1}
{"Binder": "SLSCRKEQGKFKDHLLRDCISCASICGQHPKQCAYFCENKLR (receptor, phage library variant, format as m9) [TACI_d2 Y79K]", "F' BAFF": 0}
{"Binder": "SLSCRKEQGKFYDHLLRDCISCASTCGQHPKQCAYFCENKLR (receptor, phage library variant, format as m9) [TACI_d2 I92T]", "F' BAFF": 7}
{"Binder": "SLSCRKEQGKRYDHLLRDCISCASICGQHPKQCAYFCENKLR (receptor, phage library variant, format as m9) [TACI_d2 F78R]", "F' BAFF": 0}
